# procedure_text: Beagle dog PK study 1 of Example 101 (propylene glycol-based formulation, IV and PO), with clinical observations
# Format: in vivo
# assay_setup: beagle, dog, plasma, po, 5 mg/kg, dog PK study 1, oral, mean
recorded_metric: half-life (h)
Write it as a number; the unit h goes unstated.

Request: State, in one line, measured half-life of CNC(=O)c1[nH]c(C(=O)NC2CCC2)cc1O[C@@H](C)c1ccccc1 (stereo in doubt)
Response: 1

---

# procedure_text: Beagle dog PK study 2 of Example 101 (HPβCD based formulation, IV), with clinical observations
# Format: in vivo
# assay_setup: beagle, dog, plasma, iv, 1 mg/kg, dog PK study 2, IV 1 mg/kg, HPβCD, mean
recorded_metric: AUC(0-t) (ng·h/mL)
Respond with the bare value in ng·h/mL.

Request: Read the entry CNC(=O)c1[nH]c(C(=O)NC2CCC2)cc1O[C@@H](C)c1ccccc1 (stereo in doubt) and write its reported AUC(0-t).
Response: 977

src = patent US20250263370A1
